System: Ca9-22 (Head and Neck Carcinoma)
method: combination Emax (second highest fraction inhibited in the dose matrix, 72 h); higher = more inhibition; extreme values may be limits of the assay
Entries and their combination Emax
Could you keep your reply to the number by itself?

Solved cases (5 shown):
| molecule | combination Emax |
| --- | --- |
| C[C@@H]1COCCN1c1cc(C2([S@](C)(=N)=O)CC2)nc(-c2ccnc3[nH]ccc23)n1 [AZD6738] + O=C(c1cc(Cc2n[nH]c(=O)c3ccccc23)ccc1F)N1CCN(C(=O)C2CC2)CC1 [Olaparib] (first compound max 10 µM, 7x7, partner max 10 µM) | 0.88 |
| CC(=O)c1c(C)c2cnc(Nc3ccc(N4CCNCC4)cn3)nc2n(C2CCCC2)c1=O [Palbociclib] + Cn1cnc2c(F)c(Nc3ccc(Br)cc3Cl)c(C(=O)NOCCO)cc21 [Selumetinib] (first compound max 10 µM, 7x7, partner max 10 µM) | 0.458 |
| Cc1nc(-c2cn3c(n2)-c2ccc(-c4cnn(C(C)(C)C(N)=O)c4)cc2OCC3)n(C(C)C)n1 [Taselisib] + O=C(Nc1ccc2[nH]nc(-c3ccncc3)c2c1)[C@@H]1CCN(CC(=O)N2CCN(c3ccc(-c4ncccn4)cc3)CC2)C1 [SCH772984] (first compound max 10 µM, 7x7, partner max 5 µM) | 0.938 |
| CN(CCO)CC[C@H](CSc1ccccc1)Nc1ccc(S(=O)(=O)NC(=O)c2ccc(N3CCC([C@@H](O)c4ccccc4-c4ccc(Cl)cc4)CC3)cc2)cc1S(=O)(=O)C(F)(F)F [AZD4320] + Cn1cnc2c(F)c(Nc3ccc(Br)cc3Cl)c(C(=O)NOCCO)cc21 [Selumetinib] (first compound max 1 µM, 7x7, partner max 3 µM) | 0.593 |
| O=C(c1cc(Cc2n[nH]c(=O)c3ccccc23)ccc1F)N1CCN(C(=O)C2CC2)CC1 [Olaparib] + COc1nnc2ccc(N3CCC(c4ccc(OCCN5CCN(C)C(=O)[C@H]5C)cc4)CC3)nn12 [AZD5153] (first compound max 10 µM, 7x7, partner max 1 µM) | 0.625 |

Query :: Bench note: what combination Emax did COc1cccc(OCCCN)c1-c1cc(Nc2cnc(C#N)cn2)n[nH]1 [Prexasertib] + Cc1cc2ncnn2cc1Nc1ncc2c(n1)n(C1CCOCC1)c(=O)n2C [AZD7648] (first compound max 1 µM, 7x7, partner max 10 µM) show?
Result :: 1

Query :: Also check CS(=O)(=O)CCNCc1ccc(-c2ccc3ncnc(Nc4ccc(OCc5cccc(F)c5)c(Cl)c4)c3c2)o1 [Lapatinib] + Cn1cnc2c(F)c(Nc3ccc(Br)cc3Cl)c(C(=O)NOCCO)cc21 [Selumetinib] (first compound max 10 µM, 7x7, partner max 10 µM)
Result :: 0.845

* * *

Entries and their combination Emax
System: YH-13 (Glioblastoma)
method: combination Emax (second highest fraction inhibited in the dose matrix, 72 h); higher = more inhibition; extreme values may be limits of the assay

| molecule | target-under-test | recorded-result |
| --- | --- | --- |
| CN(CCO)CC[C@H](CSc1ccccc1)Nc1ccc(S(=O)(=O)NC(=O)c2ccc(N3CCC([C@@H](O)c4ccccc4-c4ccc(Cl)cc4)CC3)cc2)cc1S(=O)(=O)C(F)(F)F [AZD4320] + C[C@@H](Nc1cc(F)cc(F)c1)c1cc(C(=O)N(C)C)cc2c(=O)cc(N3CCOCC3)oc12 [AZD8186] (first compound max 1 µM, 7x7, partner max 3 µM) | YH-13 (Glioblastoma) | 0.694 |
| Cc1nc(Nc2ncc(C(=O)Nc3c(C)cccc3Cl)s2)cc(N2CCN(CCO)CC2)n1 [Dasatinib] + CC(=O)Nc1cccc(-n2c(=O)n(C3CC3)c(=O)c3c(Nc4ccc(I)cc4F)n(C)c(=O)c(C)c32)c1 [Trametinib] (first compound max 2 µM, 7x7, partner max 1 µM) | YH-13 (Glioblastoma) | 0.784 |
| COc1nnc2ccc(N3CCC(c4ccc(OCCN5CCN(C)C(=O)[C@H]5C)cc4)CC3)nn12 [AZD5153] + CC1(C)CCC(CN2CCN(c3ccc(C(=O)NS(=O)(=O)c4ccc(NCC5CCOCC5)c([N+](=O)[O-])c4)c(Oc4cnc5[nH]ccc5c4)c3)CC2)=C(c2ccc(Cl)cc2)C1 [Venetoclax] (first compound max 1 µM, 7x7, partner max 1 µM) | YH-13 (Glioblastoma) | 0.656 |

Query :: Bench note: what combination Emax did CCN(CCO)CCCOc1ccc2c(Nc3cc(CC(=O)Nc4cccc(F)c4)[nH]n3)ncnc2c1 [AZD2811] + O=C(c1cc(Cc2n[nH]c(=O)c3ccccc23)ccc1F)N1CCN(C(=O)C2CC2)CC1 [Olaparib] (first compound max 1 µM, 7x7, partner max 10 µM) show?
Result :: 0.474

Query :: Also check CC(=O)Nc1cccc(-n2c(=O)n(C3CC3)c(=O)c3c(Nc4ccc(I)cc4F)n(C)c(=O)c(C)c32)c1 [Trametinib] + Cc1nc(-c2cn3c(n2)-c2ccc(-c4cnn(C(C)(C)C(N)=O)c4)cc2OCC3)n(C(C)C)n1 [Taselisib] (first compound max 1 µM, 7x7, partner max 10 µM)
Result :: 0.916

Query :: Also check COc1nnc2ccc(N3CCC(c4ccc(OCCN5CCN(C)C(=O)[C@H]5C)cc4)CC3)nn12 [AZD5153] + Cc1c2c(nn1C)CSCc1cc(n(C)n1)CSc1cc(c3ccccc3c1)OCCCc1c(C(=O)O)n(C)c3c-2c(Cl)ccc13 [AZD5991] (first compound max 1 µM, 7x7, partner max 1 µM)
Result :: 0.667

* * *

System: HGC-27 (Gastric Carcinoma)
method: combination Emax (second highest fraction inhibited in the dose matrix, 72 h); higher = more inhibition; extreme values may be limits of the assay
property: combination Emax
Could you keep your reply to the number by itself?

| compound | target-under-test | combination Emax |
| --- | --- | --- |
| Cc1c2c(nn1C)CSCc1cc(n(C)n1)CSc1cc(c3ccccc3c1)OCCCc1c(C(=O)O)n(C)c3c-2c(Cl)ccc13 [AZD5991] + CCN(CCO)CCCOc1ccc2c(Nc3cc(CC(=O)Nc4cccc(F)c4)[nH]n3)ncnc2c1 [AZD2811] (first compound max 1 µM, 7x7, partner max 1 µM) | HGC-27 (Gastric Carcinoma) | 1 |
| CN(CCO)CC[C@H](CSc1ccccc1)Nc1ccc(S(=O)(=O)NC(=O)c2ccc(N3CCC([C@@H](O)c4ccccc4-c4ccc(Cl)cc4)CC3)cc2)cc1S(=O)(=O)C(F)(F)F [AZD4320] + Cn1cnc2c(F)c(Nc3ccc(Br)cc3Cl)c(C(=O)NOCCO)cc21 [Selumetinib] (first compound max 1 µM, 7x7, partner max 3 µM) | HGC-27 (Gastric Carcinoma) | 0.381 |

Query :: Bench note: what combination Emax did COc1cccc(OCCCN)c1-c1cc(Nc2cnc(C#N)cn2)n[nH]1 [Prexasertib] + C[C@@H]1COCCN1C2=NC(=NC(=C2)C3(CC3)[S@](=N)(=O)C)C4=C5C=CNC5=NC=C4 [AZD6738] (first compound max 1 µM, 7x7, partner max 10 µM) show?
Result :: 0.895

* * *

Test system: BT-549 (Breast Carcinoma);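 further: after 72 h of two-drug dosing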
method: Bliss excess, mean over the matrix (fraction); higher = more synergy
Entries and their Bliss excess
Could you keep your reply to the number by itself?

Solved cases (3 shown):
| compound | target-under-test | Bliss excess |
| --- | --- | --- |
| CC1(C)CCC(CN2CCN(c3ccc(C(=O)NS(=O)(=O)c4ccc(NCC5CCOCC5)c([N+](=O)[O-])c4)c(Oc4cnc5[nH]ccc5c4)c3)CC2)=C(c2ccc(Cl)cc2)C1 [Venetoclax] + CS(=O)(=O)CCNCc1ccc(-c2ccc3ncnc(Nc4ccc(OCc5cccc(F)c5)c(Cl)c4)c3c2)o1 [Lapatinib] (first compound max 1 µM, 7x7, partner max 10 µM) | BT-549 (Breast Carcinoma) | -0.0573 |
| CC1(C)CCC(CN2CCN(c3ccc(C(=O)NS(=O)(=O)c4ccc(NCC5CCOCC5)c([N+](=O)[O-])c4)c(Oc4cnc5[nH]ccc5c4)c3)CC2)=C(c2ccc(Cl)cc2)C1 [Venetoclax] + C1CN(CCC1(C(=O)N[C@@H](CCO)C2=CC=C(C=C2)Cl)N)C3=NC=NC4=C3C=CN4 [Capivasertib] (first compound max 1 µM, 7x7, partner max 3 µM) | BT-549 (Breast Carcinoma) | -0.0385 |
| C[C@@H]1COCCN1c1cc(C2([S@](C)(=N)=O)CC2)nc(-c2ccnc3[nH]ccc23)n1 [AZD6738] + O=C(c1cc(Cc2n[nH]c(=O)c3ccccc23)ccc1F)N1CCN(C(=O)C2CC2)CC1 [Olaparib] (first compound max 10 µM, 7x7, partner max 10 µM) | BT-549 (Breast Carcinoma) | 0.0032 |

Now for a further compound.
Query :: Bench note: what Bliss excess did C[C@@H](Nc1cc(F)cc(F)c1)c1cc(C(=O)N(C)C)cc2c(=O)cc(N3CCOCC3)oc12 [AZD8186] + C1CN(CCC1(C(=O)N[C@@H](CCO)C2=CC=C(C=C2)Cl)N)C3=NC=NC4=C3C=CN4 [AZD5363] (first compound max 10 µM, 7x7, partner max 10 µM) show?
Result :: -0.0011
